# Assay system: Bcr-abl T315I (Ba/F3.p210^T315I cells) (Homo sapiens, UniProt P00519, T315I, cells depend on it)
# Assay notes: Proliferation assay (MTT), T315I mutant Bcr-abl expressing Ba/F3 cells
# Measurement conditions: 48 h, drug concentrations 0.005-10 μM
Measured parameter: IC50 (µM)
# number only, unit µM dropped from output

[[record]]
entry_smiles = "FC(F)(F)Oc1ccc(Nc2cc(-c3ccc(-c4ccccc4)cc3)ncn2)cc1"
measured_parameter = "IC50"
endpoint_result = 3.18


Q) Give the reported value of IC50 for this record: CNS(=O)(=O)c1ccc(-c2ncnc(Nc3ccc(OC(F)(F)F)cc3)c2C)cc1
A) 2.13

Q) Give the reported value of IC50 for this record: CN1CCC(N(C)C(=O)c2ccc3c(Nc4ccc(OC(F)(F)F)cc4)ncnc3c2)CC1
A) 5

Q) Give the reported value of IC50 for this record: O=C(c1ccc2c(Nc3ccc(OC(F)(F)F)cc3)ncnc2c1)N1CCC2(CC1)C(=O)NCN2c1ccccc1
A) 8.32

###

Recorded IC50, one value per entry.
# Assay system: Bcr-abl T315I (Ba/F3.p210^T315I cells) (Homo sapiens, UniProt P00519, T315I, cells depend on it)
# Assay notes: Proliferation assay (MTT), T315I mutant Bcr-abl expressing Ba/F3 cells
# Assay type: cell-based, murine
# Measurement conditions: 48 h, drug concentrations 0.005-10 μM

[[record]]
compound = "FC(F)(F)Oc1ccc(Nc2cc(-c3ccnc4[nH]ccc34)ncn2)cc1"
measured_parameter = "IC50"
endpoint_result = "> 10 µM"

[[record]]
compound = "O=C(c1ccc2c(Nc3ccc(OC(F)(F)F)cc3)ncnc2c1)N1CCC(O)C1 (stereo not shown)"
measured_parameter = "IC50"
endpoint_result = "> 10 µM"

[[record]]
compound = "COC1CCN(C(=O)c2ccc3c(Nc4ccc(OC(F)(F)F)cc4)ncnc3c2)CC1"
measured_parameter = "IC50"
endpoint_result = "0.895 µM"


Q) Give the reported value of IC50 for this record: Cc1c(Nc2ccc(OC(F)(F)F)cc2)ncnc1-c1cccc2[nH]ccc12
A) > 10 µM

###

# Assay system: Bcr-abl (Ba/F3.p210 cells) (Homo sapiens, UniProt P00519)
# Assay notes: Proliferation assay (MTT), wild type Bcr-abl expressing Ba/F3 cells
# Measurement conditions: 48 h, drug concentrations 0.005-10 μM
Measured parameter: pIC50
Quick note: pIC50 values are minus log10 of concentrations in mol/L.

Q) Give the reported value of pIC50 for this record: CC(C)C(CCO)NC(=O)CCn1ccc2c(Nc3ccc(OC(F)(F)F)cc3)ncnc21 (stereo not shown)
A) 6.07

Q) Give the reported value of pIC50 for this record: CCNNC(=O)c1ccc2c(Nc3ccc(OC(F)(F)F)cc3)ncnc2c1
A) 5.73

Q) Give the reported value of pIC50 for this record: COC1CCN(C(=O)c2ccc3c(Nc4ccc(OC(F)(F)F)cc4)ncnc3c2)CC1
A) 6.19

Q) Give the reported value of pIC50 for this record: O=C(Nc1cccc(C(F)(F)F)c1)c1ccc2c(Nc3ccc(OC(F)(F)F)cc3)ncnc2c1
A) 5.89

Q) Give the reported value of pIC50 for this record: NC(=O)C1CCCN(C(=O)c2ccc3c(Nc4ccc(OC(F)(F)F)cc4)ncnc3c2)C1 (stereo not shown)
A) 5.51

Q) Give the reported value of pIC50 for this record: NC(=O)CCn1ccc2c(Nc3ccc(OC(F)(F)F)cc3)ncnc21
A) 6.31

Q) Give the reported value of pIC50 for this record: CC1CN(C(=O)c2ccc3c(Nc4ccc(OC(F)(F)F)cc4)ncnc3c2)CC(C)N1 (stereo not shown)
A) 5.67

Q) Give the reported value of pIC50 for this record: CCNC(=O)CCn1ccc2c(Nc3ccc(OC(F)(F)F)cc3)ncnc21
A) 5.62

Q) Give the reported value of pIC50 for this record: CCOC(=O)c1cc2c(Nc3ccc(OC(F)(F)F)cc3)ncnc2n1C
A) 5.82

Q) Give the reported value of pIC50 for this record: O=C(CCn1ccc2c(Nc3ccc(OC(F)(F)F)cc3)ncnc21)NCCN1CCOCC1
A) 5.97

###

# Assay system: Bcr-abl (Ba/F3.p210 cells) (Homo sapiens, UniProt P00519)
# Assay notes: Proliferation assay (MTT), wild type Bcr-abl expressing Ba/F3 cells
# Measurement conditions: 48 h, drug concentrations 0.005-10 μM
Recorded IC50, one value per entry.
# number only, unit µM dropped from output

Some solved entries appear below for comparison.
[[record]]
compound = "CCN(CC)CCCC(C)NC(=O)c1cc2c(Nc3ccc(OC(F)(F)F)cc3)ncnc2n1C (stereo not drawn)"
endpoint_result = 1.18

[[record]]
compound = "CN(CCO)C(=O)c1ccc2c(Nc3ccc(OC(F)(F)F)cc3)ncnc2c1"
endpoint_result = 2.66

[[record]]
compound = "COC(=O)c1ccc2c(Nc3ccc(OC(F)(F)F)cc3)ncnc2c1"
endpoint_result = 0.214


Q) Please look at CCOC(=O)C1CCCN(C(=O)c2ccc3c(Nc4ccc(OC(F)(F)F)cc4)ncnc3c2)C1 (stereo not drawn) and tell me its recorded IC50 on Bcr-abl (Ba/F3.p210 cells) (Homo sapiens, UniProt P00519).
A) 5.55

Q) Please look at CCN(CC)C(=O)c1ccc2c(Nc3ccc(OC(F)(F)F)cc3)ncnc2c1 and tell me its recorded IC50 on Bcr-abl (Ba/F3.p210 cells) (Homo sapiens, UniProt P00519).
A) 0.742

Q) Please look at O=C(c1ccc2c(Nc3ccc(OC(F)(F)F)cc3)ncnc2c1)N1CCC2(CC1)C(=O)NCN2c1ccccc1 and tell me its recorded IC50 on Bcr-abl (Ba/F3.p210 cells) (Homo sapiens, UniProt P00519).
A) 1.48

Q) Please look at CN1CCC(N(C)C(=O)c2ccc3c(Nc4ccc(OC(F)(F)F)cc4)ncnc3c2)CC1 and tell me its recorded IC50 on Bcr-abl (Ba/F3.p210 cells) (Homo sapiens, UniProt P00519).
A) 0.689

Q) Please look at CCN(CC)Cc1ccc2c(Nc3ccc(OC(F)(F)F)cc3)ncnc2c1 and tell me its recorded IC50 on Bcr-abl (Ba/F3.p210 cells) (Homo sapiens, UniProt P00519).
A) 2.04

Q) Please look at O=C(c1ccoc1)N1CCN(C(=O)c2ccc3c(Nc4ccc(OC(F)(F)F)cc4)ncnc3c2)CC1 and tell me its recorded IC50 on Bcr-abl (Ba/F3.p210 cells) (Homo sapiens, UniProt P00519).
A) 2.04

Q) Please look at Cn1c(C(N)=O)cc2c(Nc3ccc(OC(F)(F)F)cc3)ncnc21 and tell me its recorded IC50 on Bcr-abl (Ba/F3.p210 cells) (Homo sapiens, UniProt P00519).
A) 0.62

Q) Please look at O=C(c1ccc2c(Nc3ccc(OC(F)(F)F)cc3)ncnc2c1)N1CCCC1CO (stereo not drawn) and tell me its recorded IC50 on Bcr-abl (Ba/F3.p210 cells) (Homo sapiens, UniProt P00519).
A) 1.65

Q) Please look at O=C(NCCO)c1ccc2c(Nc3ccc(OC(F)(F)F)cc3)ncnc2c1 and tell me its recorded IC50 on Bcr-abl (Ba/F3.p210 cells) (Homo sapiens, UniProt P00519).
A) 2.15

Q) Please look at FC(F)(F)Oc1ccc(Nc2ncnc3c2ccn3CCN2CCOCC2)cc1 and tell me its recorded IC50 on Bcr-abl (Ba/F3.p210 cells) (Homo sapiens, UniProt P00519).
A) 0.38

###

# Assay system: Bcr-abl T315I (Ba/F3.p210^T315I cells) (Homo sapiens, UniProt P00519, T315I, cells depend on it)
# Assay notes: Proliferation assay (MTT), T315I mutant Bcr-abl expressing Ba/F3 cells
# Measurement conditions: 48 h, drug concentrations 0.005-10 μM
Response field label: string, one of Condition met (IC50 strictly below 7 µM) or Condition not met.

[[record]]
molecule = "CN(C)C1CCN(Cc2cc3c(Nc4ccc(OC(F)(F)F)cc4)ncnc3s2)C1 (centres unmarked)"
class_assignment = "Condition not met"

[[record]]
molecule = "FC(F)(F)Oc1ccc(Nc2cc(-c3ccc4[nH]ccc4c3)ncn2)cc1"
class_assignment = "Condition not met"

[[record]]
molecule = "CCNC(=O)CCn1ccc2c(Nc3ccc(OC(F)(F)F)cc3)ncnc21"
class_assignment = "Condition not met"

[[record]]
molecule = "O=C(c1cc2c(Nc3ccc(OC(F)(F)F)cc3)ncnc2s1)N1CCN(c2cccc(C(F)(F)F)c2)CC1"
class_assignment = "Condition met"

[[record]]
molecule = "Cc1ccc(S(=O)(=O)NC(=O)c2ccc3c(Nc4ccc(OC(F)(F)F)cc4)ncnc3c2)cc1"
class_assignment = "Condition not met"


Q) Report whether reported IC50 is lower than 7 µM (strictly) for CCOC(=O)c1cc2c(Nc3ccc(OC(F)(F)F)cc3)ncnc2n1C
A) Condition not met

Q) Report whether reported IC50 is lower than 7 µM (strictly) for Cc1c(Nc2ccc(OC(F)(F)F)cc2)ncnc1-c1cnn(-c2ccccc2)c1C
A) Condition met

Q) Report whether reported IC50 is lower than 7 µM (strictly) for Cn1c(C(N)=O)cc2c(Nc3ccc(OC(F)(F)F)cc3)ncnc21
A) Condition not met

Q) Report whether reported IC50 is lower than 7 µM (strictly) for CNCCN(C)C(=O)c1ccc2c(Nc3ccc(OC(F)(F)F)cc3)ncnc2c1
A) Condition not met

Q) Report whether reported IC50 is lower than 7 µM (strictly) for COc1cccc2cc(-c3cc(Nc4ccc(OC(F)(F)F)cc4)ncn3)ccc12
A) Condition not met

Q) Report whether reported IC50 is lower than 7 µM (strictly) for Cc1ccc(NC(=O)c2ccc(CN3CCOCC3)c(C(F)(F)F)c2)cc1Nc1nccn1-c1cc(Nc2ccc(OC(F)(F)F)cc2)ncn1
A) Condition met
